Would you mind telling me the reported IC50 of each entry?
measured_on: Recombinant human 17β-HSD13 (Homo sapiens)
Sequence (Q7Z5P4 20-300): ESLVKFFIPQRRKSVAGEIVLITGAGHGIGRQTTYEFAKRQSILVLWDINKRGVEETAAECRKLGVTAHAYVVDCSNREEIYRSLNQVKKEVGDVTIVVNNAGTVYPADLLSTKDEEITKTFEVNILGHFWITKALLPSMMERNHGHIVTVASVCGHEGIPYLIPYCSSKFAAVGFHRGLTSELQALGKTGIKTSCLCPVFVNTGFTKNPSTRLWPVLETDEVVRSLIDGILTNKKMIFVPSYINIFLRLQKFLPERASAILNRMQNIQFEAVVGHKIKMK
assay_protocol: 17β-HSD13 rapid-fire mass spectrometry assay (RF/MS assay)
test_settings: inhibition of 17β-HSD13, RF/MS assay; HSD17B13 80 nM, LTB4 10 μM, NAD+ 0.5 mM, RT 3 h

Worked examples follow.
Data point: COc1ccc(-c2nc3sc4c(O)c(Cl)ccc4c3c(=O)n2Cc2cc(C(F)(F)F)no2)c(C2CC2)c1 [Example 48] ; IC50 = < 100 nM

Data point: COc1ccc(-c2nc3sc4c(N)cccc4c3c(=O)n2Cc2cnco2)c(C2CC2)c1 [Example 6] ; IC50 = > 10000 nM

Data point: COc1ccc(-c2nc3sc4c(O[C@@H]5O[C@H](C(=O)O)[C@@H](O)[C@H](O)[C@H]5O)cccc4c3c(=O)n2Cc2cnco2)c(C2CC2)c1 [Example 17] ; IC50 = 1000 to 10000 nM

Kindly consider the entry below.
Data point: O=c1c2c(nc(-c3cc(F)c(C(F)F)cc3C3CC3)n1Cc1cnc(C(F)(F)F)nc1)sc1c(O)c(Cl)ccc12 [Example 176] ; IC50 = < 100 nM
